# credit: patent US6608082B1

target: MCR-1 (Homo sapiens, UniProt Q01726); construct: expressed in transfected cells; host or cells: HEK 293; assay: Melanocortin receptor binding assay, competition with 125I-HP 467, HEK 293 cells expressing hMCR-1; conditions: competition with 125I-HP 467, HEK 293 cells expressing MCR-1; read-out: MC-1 IC50
Sequence (Q01726 whole entry): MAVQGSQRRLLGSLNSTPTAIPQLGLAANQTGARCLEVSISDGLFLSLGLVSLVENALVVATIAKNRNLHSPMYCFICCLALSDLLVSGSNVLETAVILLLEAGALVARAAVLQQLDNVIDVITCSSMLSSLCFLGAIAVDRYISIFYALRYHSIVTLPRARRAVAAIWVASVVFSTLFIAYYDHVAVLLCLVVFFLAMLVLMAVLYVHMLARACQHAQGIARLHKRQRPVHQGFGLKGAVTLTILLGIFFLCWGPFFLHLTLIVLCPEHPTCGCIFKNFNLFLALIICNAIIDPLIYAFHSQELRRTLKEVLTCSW
pIC50: −log10 of the molar value.
test.readout: pIC50

CCNc1ccc(C2C(CN)c3ccccc3CN2CCCCC(CN)NCC)cc1 (stereo not drawn): 7.30

(I) NCCNC(CN)CCCN1Cc2ccccc2C(CNCCc2ccccc2)C1c1ccc(-c2ccccc2)cc1 (stereo not drawn)
(II) CCCCNc1ccc(C2C(CN)c3ccccc3CN2CCCCC(CN)NCc2ccc(Cl)cc2)cc1 (mixture of isomers)
(III) CCCCNc1ccc(C2C(CNCCc3ccccc3)c3ccccc3CN2CCCCC(CN)NCCc2ccc3ccccc3c2)cc1 (stereo not drawn)
(IV) NCC(CCCN1Cc2ccccc2C(CNCCc2ccccc2)C1c1ccc(-c2ccccc2)cc1)NCCO (stereo not drawn)
(V) CNCCNC(CN)CCCN1Cc2ccccc2C(CNCCc2ccccc2)C1c1ccc(-c2ccccc2)cc1 (stereo not drawn)
Would you mind ranking these molecules by ascending pIC50? I would appreciate it if you listed the labels in the requested order.
IV, V, III, I, II
(IV: 5.77, V: 6.01, III: 6.24, I: 6.46, II: 6.80)

* * *

biological target: MCR-4 (Homo sapiens, UniProt P32245); construct: expressed in transfected cells; host or cells: HEK 293; assay: Melanocortin receptor binding assay, competition with 125I-HP 467, HEK 293 cells expressing hMCR-4; settings: inhibition of binding of 125I-HP 467, HEK 293 cells expressing MCR-4; read-out: MC-4 IC50
Sequence (P32245 whole entry): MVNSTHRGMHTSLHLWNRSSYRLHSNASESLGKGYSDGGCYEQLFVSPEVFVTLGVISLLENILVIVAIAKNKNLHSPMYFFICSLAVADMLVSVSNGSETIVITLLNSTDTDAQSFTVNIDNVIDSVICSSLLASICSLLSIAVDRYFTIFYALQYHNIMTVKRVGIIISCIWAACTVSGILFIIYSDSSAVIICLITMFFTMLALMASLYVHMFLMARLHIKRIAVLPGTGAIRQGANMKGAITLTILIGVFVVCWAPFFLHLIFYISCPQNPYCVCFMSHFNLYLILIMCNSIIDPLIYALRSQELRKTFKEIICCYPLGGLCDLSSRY
pIC50: −log10 of the molar value.
test.readout: pIC50

NCC(CCCCN1Cc2ccccc2C(CNCCc2ccc(O)cc2)C1c1cc(C(F)(F)F)cc(C(F)(F)F)c1)NCc1ccc(Br)cc1 (mixture of isomers) [TRG 2421-8]: 5.22
CCCCNc1ccc(C2C(CNCCc3ccccc3)c3ccccc3CN2CCCC(CN)NCc2ccccc2)cc1 (stereo not shown) [TRG 2411-196]: 5.98
CCNc1ccc(C2C(CN)c3ccccc3CN2CCCC(CN)NCc2ccc(OC)cc2)cc1 (stereo not shown) [TRG 2411-184]: 5.79
CCNc1ccc(C2C(CNCCc3ccccc3)c3ccccc3CN2CCCC(CN)NCC2CC2CNC(C)C)cc1 (stereo not shown) [TRG 2420-5]: 5.01
CCCOc1ccc(C2C(CN)c3ccccc3CN2CCCC(CN)NCCC2CCCCC2)cc1 (stereo not shown) [TRG 2415-11]: 5.82
Cc1ccc(CNC(CN)CCCCN2Cc3ccccc3C(CNCCc3ccc(Cl)cc3)C2c2cc(C(F)(F)F)cc(C(F)(F)F)c2)cc1 (stereo not shown) [TRG 2421-32]: 5.38
COc1ccc(CNC(CN)CCCCN2Cc3ccccc3C(CNCCc3ccc(Cl)cc3)C2c2cc(C(F)(F)F)cc(C(F)(F)F)c2)cc1 (stereo not shown) [TRG 2421-34]: 5.58
CCOc1ccc(CCNCC2c3ccccc3CN(CCCCC(CN)NCc3ccccc3)C2c2cc(C(F)(F)F)cc(C(F)(F)F)c2)cc1 (stereo not shown) [TRG 2421-21]: 5.40
COc1ccc(CNC(CN)CCCCN2Cc3ccccc3C(CNCCc3cccc(OC)c3)C2c2cccc(C(F)(F)F)c2)cc1 (stereo not shown) [TRG 2421-48]: 6.02
COc1ccc(CNC(CN)CCCCN2Cc3ccccc3C(CNCCc3ccc(O)cc3)C2c2cc(C(F)(F)F)cc(C(F)(F)F)c2)cc1 (stereo not shown) [TRG 2421-9]: 5.76

* * *

biological target: MCR-1 (Homo sapiens, UniProt Q01726); construct: expressed in transfected cells; host or cells: HEK 293; experiment: Melanocortin receptor binding assay, competition with 125I-HP 467, HEK 293 cells expressing hMCR-1; conditions: displacement of 125I-HP 467 at 10 μM isoquinoline compound; first of duplicate
test.readout: % Disp. MC-1 10 μM (%)

In the examples that follow, each entry is paired with its recorded % Disp. MC-1 10 μM.
CNC(CN)CN1Cc2ccccc2C(CNC2CCCCC2)C1c1cccc(O)c1 (centres unmarked): 37.7
NCCN1Cc2ccccc2C(CNC2CCCCC2)C1c1ccc(F)c(Br)c1 (centres unmarked): 51.8
CNC(CN)CN1Cc2ccccc2C(CNC2CCCCC2)C1c1cccc(F)c1 (centres unmarked): 39.2

(A) NCCN1Cc2ccccc2C(CNC2CCCCC2)C1c1ccc(F)c(F)c1 (centres unmarked)
(B) COc1ccc(C2C(CNC3CCCCC3)c3ccccc3CN2CCN)cc1S(=O)(=O)O (centres unmarked)
Looking at A and B , which one comes out lower in % Disp. MC-1 10 μM terms? Your choice should be expressed through its label.
B
(B: 5.5%, A: 52.1%)

* * *

biological target: MCR-1 (Homo sapiens); construct: expressed in transfected cells; host or cells: HEK 293; assay: Melanocortin receptor binding assay, competition with 125I-HP 467, HEK 293 cells expressing hMCR-1; settings: displacement of 125I-HP 467 at 10 μM isoquinoline compound; first of duplicate
test.readout: % Disp. MC-1 10 μM (%)

Reference set (3 entries):
CNC(CN)CN1Cc2ccccc2C(CNC2CCCCC2)C1c1cc(OC)cc(OC)c1 (centres unmarked) [TRG 2405-121]: 35.3
NCCN1Cc2ccccc2C(CNC2CCCCC2)C1c1ccsc1 (centres unmarked) [TRG 2405-53]: 43.3
CNC(CN)CN1Cc2ccccc2C(CNC2CCCCC2)C1c1ccc(O)cc1 (centres unmarked) [TRG 2405-156]: 25.9

(P) NCCN1Cc2ccccc2C(CNC2CCCCC2)C1c1ccc(C(F)(F)F)cc1 (centres unmarked) [TRG 2405-58]
(Q) NCCN1Cc2ccccc2C(CNC2CCCCC2)C1c1ccc(Br)o1 (centres unmarked) [TRG 2405-89]
Among P and Q , whose measured % Disp. MC-1 10 μM is the smaller figure? Reply with the label of the item you choose.
Q

(P) COc1ccc(Oc2cccc(C3C(CNC4CCCCC4)c4ccccc4CN3CCN)c2)cc1 (centres unmarked) [TRG 2405-34]
(Q) CNC(CN)CN1Cc2ccccc2C(CNC2CCCCC2)C1c1cccnc1 (centres unmarked) [TRG 2405-141]
Between the entries labelled P and Q , which has a larger % Disp. MC-1 10 μM value on record? // respond with label for picked entry
P
(P: 55.6%, Q: 15%)

* * *

target: MCR-1 (Homo sapiens, UniProt Q01726); construct: expressed in transfected cells; host or cells: HEK 293; experiment: Melanocortin receptor binding assay, competition with 125I-HP 467, HEK 293 cells expressing hMCR-1; conditions: displacement of 125I-HP 467 at 10 μM isoquinoline compound; first of duplicate
test.readout: % Disp. MC-1 10 μM (%)

Known % Disp. MC-1 10 μM results, listed for orientation:
Cn1cccc1C1C(CNC2CCCCC2)c2ccccc2CN1CCN (centres unmarked) [TRG 2405-4]: 76.8
NCCN1Cc2ccccc2C(CNC2CCCCC2)C1c1ccoc1 (centres unmarked) [TRG 2405-42]: 43.6
CNC(CN)CN1Cc2ccccc2C(CNC2CCCCC2)C1c1ccc(C)cc1 (centres unmarked) [TRG 2405-159]: 51
CNC(CN)CN1Cc2ccccc2C(CNC2CCCCC2)C1c1ccc(N(C)C)cc1 (centres unmarked) [TRG 2405-145]: 41.2
CNC(CN)CN1Cc2ccccc2C(CNC2CCCCC2)C1c1ccco1 (centres unmarked) [TRG 2405-107]: 43.1

(1) Cc1ccc(C2C(CNC3CCCCC3)c3ccccc3CN2CCN)s1 (centres unmarked) [TRG 2405-78]
(2) CCCOc1ccc(C2C(CNC3CCCCC3)c3ccccc3CN2CCN)cc1 (centres unmarked) [TRG 2405-73]
Lab log: flag the item ( 1 or 2 ) with the smaller % Disp. MC-1 10 μM figure. Answer by stating the label of the chosen item.
1

* * *

target: MCR-4 (Homo sapiens, UniProt P32245); construct: expressed in transfected cells; host or cells: HEK 293; experiment: Melanocortin receptor binding assay, competition with 125I-HP 467, HEK 293 cells expressing hMCR-4; details: TRG 2406 and TRG 2407 libraries; inhibition of binding of 125I-HP 467; read-out: MC-4 IC50
test.readout: IC50 (nM)

CNC(CN)CCCCN1Cc2ccccc2C(CNCc2ccccc2C(F)(F)F)C1c1ccc(Cl)cc1Cl (stereo not shown): 9250

(P) CNC(CN)CCCCN1Cc2ccccc2C(CNC(C)C)C1c1ccc(-c2ccccc2)cc1 (stereo not shown)
(Q) CNC(CN)CCCCN1Cc2ccccc2C(CN(C)C2CCCCC2)C1c1ccc(Cl)cc1Cl (stereo not shown)
For the pair P and Q , which entry has the numerically smaller recorded IC50? Answer format: the label of the selected item.
Q
(Q: 2100 nM, P: 3600 nM)

(1) CNC(CN)CCCCN1Cc2ccccc2C(CNc2cccc(Cl)c2)C1c1ccc(Cl)cc1Cl (stereo not shown)
(2) CNC(CN)CCCCN1Cc2ccccc2C(CNCC2CCCCC2)C1c1ccc(Cl)cc1Cl (mixture of isomers)
(3) CCCOc1ccc(C2C(CNCc3ccccc3O)c3ccccc3CN2CC(CN)NC)cc1 (stereo not shown)
(4) CNC(CN)CCCCN1Cc2ccccc2C(CNCc2cccc(OC)c2)C1c1ccc(Cl)cc1Cl (stereo not shown)
Hello, I need these entries ordered by IC50, highest reading first. Thanks! Enter labels, ranked according to the request.
1, 3, 4, 2
(1: 14700 nM, 3: 2750 nM, 4: 1810 nM, 2: 1020 nM)

(A) CCNc1ccc(C2C(CNc3ccccc3OC)c3ccccc3CN2CCCCC(CN)NC)cc1 (stereo not shown)
(B) CNC(CN)CCCCN1Cc2ccccc2C(CN2CCCCC2)C1c1ccc(Cl)cc1Cl (stereo not shown)
(C) CNC(CN)CCCCN1Cc2ccccc2C(CNCc2ccccc2OC)C1c1ccc(Cl)cc1Cl (mixture of isomers)
(D) CNC(CN)CCCCN1Cc2ccccc2C(CNCc2ccccc2O)C1c1cccc(Oc2ccc(Cl)c(Cl)c2)c1 (mixture of isomers)
Kindly order the items shown according to IC50, from the highest value down. Please respond with the labels ordered as the question requires.
A, D, B, C

(I) CCNc1ccc(C2C(CNc3ccccc3Cl)c3ccccc3CN2CCCCC(CN)NC)cc1 (stereo not shown)
(II) CCNc1ccc(C2C(CNCc3ccccc3Cl)c3ccccc3CN2CCCCC(CN)NC)cc1 (stereo not shown)
Could you tell me which of I and II has the lower IC50 reading? Please indicate the selected item by its label.
II
